Tested on: soybean (Glycine max L., var. Pella 86, SOY)
test-protocol: Pre-emerge greenhouse screening, crop safety (phytotoxicity rating)
Type: in vivo
test-conditions: 250 g ai/ha, 14 days after application
readout-kind: SOY crop damage, phytotoxicity rating (0-100 scale)

>  <compound>
Cn1c(C(F)(F)F)cc(=O)n(-c2cc(Oc3ccccc3C#N)c(Cl)cc2F)c1=S [Compound 1-66]

>  <test-value>
0

$$$$
>  <compound>
Fc1cc(Cl)c(Oc2ncccn2)cc1-c1nn2c(c1Cl)CCCC2 [Compound 6-1]

>  <test-value>
60

$$$$
>  <compound>
Cn1nc(-c2cc(Oc3ncccn3)c(Cl)cc2F)c(=O)n(C)c1=S [Compound 4-1]

>  <test-value>
0

$$$$
>  <compound>
Cn1c(=S)n(C)c(=O)n(-c2cc(Oc3ccccc3[N+](=O)[O-])c(Cl)cc2F)c1=O [Compound 2-17]

>  <test-value>
10

$$$$
>  <compound>
Cn1c(C(F)(F)F)cc(=O)n(-c2cc(Oc3ncccc3[N+](=O)[O-])c(Cl)cc2F)c1=S [Compound 1-9]

>  <test-value>
50

$$$$
>  <compound>
Cn1c(=S)n(C)c(=O)n(-c2cc(Oc3ccccc3N)c(Cl)cc2F)c1=O [Compound 2-18]

>  <test-value>
0

$$$$
>  <compound>
Cn1nc(-c2cc(Oc3ncccn3)c(Cl)cc2F)c(Cl)c1[S+]([O-])C(F)F (stereo not drawn) [Compound 5-1]

>  <test-value>
65

$$$$
>  <compound>
COc1ccc(Oc2cc(-n3c(=O)cc(C(F)(F)F)n(C)c3=S)c(F)cc2C#N)cc1 [Compound 1-72]

>  <test-value>
40

$$$$
>  <compound>
Fc1cc(Cl)c(Oc2ncccn2)cc1-c1nn2c(c1Br)CCCC2 [Compound 6-2]

>  <test-value>
40

$$$$
>  <compound>
O=[N+]([O-])c1ccccc1Oc1cc(-c2nn3c(c2Cl)CCCC3)c(F)cc1Cl [Compound 6-19]

>  <test-value>
50

$$$$
>  <compound>
Cn1c(C(F)(F)F)cc(=O)n(-c2cc(Oc3ncccn3)c(Cl)cc2F)c1=S [Compound 1-1]

>  <test-value>
80

$$$$
>  <compound>
Cn1c(C(F)(F)F)cc(=O)n(-c2cc(Oc3ccccc3[N+](=O)[O-])c(Cl)cc2F)c1=S [Compound 1-49]

>  <test-value>
0

$$$$
>  <compound>
Cn1c(C(F)(F)F)cc(=O)n(-c2cc(Oc3ccccc3N)c(Cl)cc2F)c1=S [Compound 1-48]

>  <test-value>
0

$$$$
>  <compound>
N#Cc1c(-c2cc(Oc3ncccn3)c(Cl)cc2F)nn2c1CCCC2 [Compound 6-17]

>  <test-value>
0

$$$$
>  <compound>
Cn1c(C(F)(F)F)cc(=O)n(-c2cc(Oc3ncccc3C(F)(F)F)c(Cl)cc2F)c1=S [Compound 1-15]

>  <test-value>
35

$$$$
>  <compound>
Cn1c(=S)n(C)c(=O)n(-c2cc(Oc3ccccc3)c(Cl)cc2F)c1=O [Compound 2-16]

>  <test-value>
0

$$$$
>  <compound>
Cn1c(C(F)(F)F)cc(=O)n(-c2cc(Oc3ccccc3O)c(C#N)cc2F)c1=S [Compound 1-70]

>  <test-value>
80

$$$$
>  <compound>
Cn1c(=S)n(C)c(=O)n(-c2cc(Oc3ncccn3)c(Cl)cc2F)c1=O [Compound 2-1]

>  <test-value>
100

$$$$
>  <compound>
Cn1c(C(F)(F)F)cc(=O)n(-c2cc(Oc3ccccc3)c(Cl)cc2F)c1=S [Compound 1-47]

>  <test-value>
65

$$$$
>  <compound>
COc1ccccc1Oc1cc(-n2c(=O)cc(C(F)(F)F)n(C)c2=S)c(F)cc1C#N [Compound 1-71]

>  <test-value>
60

$$$$
>  <compound>
Cn1c(C(F)(F)F)cc(=O)n(-c2cc(Oc3ccccc3)c(C#N)cc2F)c1=S [Compound 1-69]

>  <test-value>
50

$$$$
